species: Homo sapiens; assay: To identify inhibition of the IFN signalling (Jak-Stat) pathway via expression of an eGFP reporter gene under the control of an IFN-stimulated response element (ISRE) containing MxA promoter.; type: functional; parameters: scale not given: direction of the effect not stated beside the values; conditions: 30 µM
Reported Percent Effect values follow for various molecules
READOUT TYPE: Percent Effect (%)

>>> quantitative_readout("COc1ccc(CNC(=O)NC2CCN(CC(F)F)CC2)cc1C")
-4.85
>>> quantitative_readout("Cn1ccc(C(=O)NC2CCN(c3ncccn3)CC2)cc1=O")
5.6
>>> quantitative_readout("Cc1n[nH]c(C)c1C1COCCN1C(=O)Cc1cccc(F)c1 (stereo not drawn)")
-1.33

====

molecular target: AMP-activated protein kinase, AMPK (Homo sapiens) (UniProt P54646+O43741+P54619+Q9UGJ0+Q9Y478+Q13131+Q9UGI9); experiment: AMP-dependent Kinase enzyme assay. An in vitro enzyme assay that detects ADP turnover that is directly proportional to AMPK activity. This uses naive AMPK that is activated during the assay with MK-8722; assay type: functional; parameters: scale not given: direction of the effect not stated beside the values; conditions: 30 µM
As shown below, each of these molecules has a reported Percent Effect value.
READOUT TYPE: Percent Effect (%)

>>> quantitative_readout("Cc1noc([C@@]23CCO[C@@H]2CCN(C(=O)c2sccc2C)C3)n1")
2.33
>>> quantitative_readout("O=C(Cc1ccccc1F)N1C[C@@H]2COC[C@]2(COc2cccnc2)C1")
2.48
>>> quantitative_readout("CN(C)Cc1ccnc(C2CCCN2Cc2cc[nH]n2)n1 (stereo not drawn)")
10.3

====

Molecular target: Tyrosyl-tRNA synthetase, putative (Trypanosoma cruzi (strain CL Brener))
Sequence (whole entry): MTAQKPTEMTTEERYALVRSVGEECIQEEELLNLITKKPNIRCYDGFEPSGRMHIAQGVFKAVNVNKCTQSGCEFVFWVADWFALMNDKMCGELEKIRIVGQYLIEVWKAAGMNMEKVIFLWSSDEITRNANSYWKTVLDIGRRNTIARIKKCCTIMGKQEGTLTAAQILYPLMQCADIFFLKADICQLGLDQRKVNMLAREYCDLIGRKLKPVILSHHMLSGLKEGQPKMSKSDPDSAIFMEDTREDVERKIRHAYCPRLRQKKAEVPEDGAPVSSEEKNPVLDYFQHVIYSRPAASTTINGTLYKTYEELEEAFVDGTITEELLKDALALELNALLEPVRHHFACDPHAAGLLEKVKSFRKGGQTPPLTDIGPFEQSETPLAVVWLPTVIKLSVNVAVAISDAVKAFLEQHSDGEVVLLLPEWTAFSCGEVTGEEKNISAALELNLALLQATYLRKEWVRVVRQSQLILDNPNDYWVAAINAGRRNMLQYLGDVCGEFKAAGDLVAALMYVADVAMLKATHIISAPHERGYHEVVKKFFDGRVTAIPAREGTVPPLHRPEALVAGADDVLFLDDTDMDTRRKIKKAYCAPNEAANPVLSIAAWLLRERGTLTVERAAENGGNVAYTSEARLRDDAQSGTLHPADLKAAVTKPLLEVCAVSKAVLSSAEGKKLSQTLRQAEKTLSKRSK
Assay: Trypanosoma cruzi tyrosyl tRNA synthetase (TcYRS) _High Tyrosine SOP; also: in the data most compounds retested in dose-response had high values
Format: functional
Set-up: scale not given: direction of the effect not stated beside the values
Conditions: 30 µM
READOUT TYPE: Percent Effect (%)

>>> quantitative_readout("Cc1ccc(CNCc2nnc3n2CCCC3C(F)(F)F)s1 (stereo not given)")
9.29
>>> quantitative_readout("CN1CCCc2cc(CNC(=O)c3ccc(NC4CC4)nc3)ccc21")
6.25
>>> quantitative_readout("COc1ccccc1N1CCC(CNCc2cccc(O)c2)C1 (stereo not given)")
0.493
>>> quantitative_readout("CNC(=O)CC1CCN(Cc2nc(-c3cccc(Cl)c3)oc2C)CC1")
5.82
>>> quantitative_readout("CNC(=O)C1Cn2ccnc2C2(CCN(CCF)CC2)O1 (stereo not given)")
3.17
>>> quantitative_readout("CN(C(=O)c1cccc(C(=O)NS(C)(=O)=O)c1)c1ccccc1")
6.45
>>> quantitative_readout("CCN(c1ccc(C(=O)NCCCN2CCCC2)cc1)S(=O)(=O)CC")
4.25
>>> quantitative_readout("CCc1nnc2n1CCN(C(=O)C(C)COCc1ccccc1)C2 (stereo not given)")
3.45
>>> quantitative_readout("CSCC[C@H](N)C(=O)NCc1cc2n(n1)CCCN(C(=O)C1CCC1)C2")
0
>>> quantitative_readout("CCc1csc(C2CCCN(C(=O)c3ccc(OC)nn3)C2)n1 (stereo not given)")
7.77
>>> quantitative_readout("Nc1nc(C2CCN(C(=O)c3cscn3)CC2)cs1")
3.19
>>> quantitative_readout("Cn1cc(CN2C[C@@H]3COC[C@]3(COc3ccc(C#N)cn3)C2)cn1")
8.33
>>> quantitative_readout("CNC(=O)c1cnc(/C=C/c2cc(OC)c(OC)c(OC)c2)s1")
9.9
>>> quantitative_readout("O=C1CCC2(CCN(c3ncc(F)cn3)CC2)N1CCN1CCCC1")
1.06
>>> quantitative_readout("Cc1occc1C(=O)N1CCC2(CCCN(CC3CCC3)C2=O)C1 (stereo not given)")
6.32
>>> quantitative_readout("CCOC(=O)c1sc2ccsc2c1CNC(=O)C(C)(C)C#N")
5.94
>>> quantitative_readout("O=C(NCCOc1ncc(Cl)cc1Cl)c1ccncc1")
7.92
>>> quantitative_readout("c1cncc(COCC2CN(Cc3ccco3)Cc3ccnn3C2)c1 (stereo not given)")
7.53
>>> quantitative_readout("Cc1cnccc1CN1C[C@@H](O)[C@H](Oc2cccc(F)c2)C1")
0
>>> quantitative_readout("FC1(F)CCN(Cc2ccncc2)CC12CCN(Cc1ccccn1)C2 (stereo not given)")
-3.24

====

target: Arginase-2, mitochondrial (Homo sapiens); assay: in vitro enzyme assay to detect the production of urea directly proportional to the activity of Arginase II; type: functional; parameters: scale not given: in the data most compounds retested in dose-response had high values; details: 33.3 µM
READOUT TYPE: Percent Effect (%)

>>> quantitative_readout("CNC(=O)[C@@H]1C[C@H]2CN(C(=O)c3ccco3)C[C@H]2N1C")
-21
>>> quantitative_readout("Cc1nc(C)n(C2CCCN(C(=O)Cc3n[nH]c4ccccc34)C2)n1 (stereo unspecified)")
-7.47
>>> quantitative_readout("Cc1noc(C2CCC3(CCN(C(=O)C4=CCCCC4)CC3)O2)n1 (stereo unspecified)")
3.23
>>> quantitative_readout("CCCN1CCC(N(Cc2ncc(C)o2)C(C)=O)C1 (stereo unspecified)")
-0.744
>>> quantitative_readout("O=C1CN(Cc2nnc(-c3ccc(Br)cc3)o2)CCN1")
-1.77
>>> quantitative_readout("O=C(c1cccs1)N1CCC2(C1)c1ccccc1S(=O)(=O)N2CC1CC1 (stereo unspecified)")
-8.62

====

Measured Percent Effect, listed per entry.
molecular target: AMP-activated protein kinase, AMPK (Homo sapiens) (UniProt P54646+O43741+P54619+Q9UGJ0+Q9Y478+Q13131+Q9UGI9); experiment: AMP-dependent Kinase enzyme assay. An in vitro enzyme assay that detects ADP turnover that is directly proportional to AMPK activity. This uses naive AMPK that is activated during the assay with MK-8722; format: functional; design: scale not given: direction of the effect not stated beside the values; settings: 30 µM
READOUT TYPE: Percent Effect (%)

>>> quantitative_readout("O=C(NC1CC1)[C@@H]1CCO[C@@H]2CCN(Cc3ccsc3)C[C@H]21")
8.56
>>> quantitative_readout("CCOCCC(=O)N1CCCC(c2ncc[nH]2)C1 (stereo not drawn)")
-7.86
>>> quantitative_readout("CCOc1cc(C(=O)N2CCCC(c3cc(C(N)=O)[nH]n3)C2)ccn1 (stereo not drawn)")
5.83
>>> quantitative_readout("Cn1ccnc1CN1CCN(c2ccc(C#N)cn2)CC1")
39.5
>>> quantitative_readout("CC(C)c1n[nH]c(C(=O)Nc2cc[nH]n2)c1Br")
24.9
>>> quantitative_readout("CCS(=O)(=O)N1CCC(c2cc3n(n2)[C@@H](C(F)(F)F)C[C@@H](C)N3)CC1")
-29.7
>>> quantitative_readout("O=C(Cc1cccc(F)c1)NCCNCc1ccc2c(c1)CCO2")
-6
>>> quantitative_readout("CC(C)CCN1Cc2c(C(=O)O)ncn2-c2ccccc2S1(=O)=O")
16.3
>>> quantitative_readout("COc1ccccc1CN(C)c1nccc(-c2cn(C)nc2C)n1")
2.11
>>> quantitative_readout("O=C(c1cc(F)ccc1F)C1CCN(C(=O)c2ccccn2)CC1")
3.21
>>> quantitative_readout("COCC(=O)N1CC[C@@H]2O[C@H](COCc3ccncc3)CC[C@@H]21")
10.4
>>> quantitative_readout("CCn1cc(CN2CCCC(CO)(CCc3ccccc3)C2)c(C)n1 (stereo not drawn)")
-1.51
>>> quantitative_readout("Fc1cccc(-c2nc(CN3CCOC(Cn4cccn4)C3)co2)c1 (stereo not drawn)")
-6.81
